Listing of recorded MFI binding by entry.
Biological target: T1, recombinant human Sortilin (human, UniProt Q99523 78-830)
T1 construct: also called hSort; SORT1
Assay: flow cytometry, 10 ug/ml antibody on 293 cells expressing recombinant human Sortilin, PE anti-human secondary
// return numeric value only (unit: MFI, not printed)

# example entries with known answers
binder	MFI binding / MFI
anti-Sortilin antibody S-74 (antibody, V domains shown, Tested as full IgG made in yeast) VH: QVQLQESGPGLVKPSQTLSLTCTVSGGSISSGTYYWSWIRQHPGKGLEWIGYIYYSGSTYYNPSLKSRVTISVDTSKNQFSLKLSSVTAADTAVYYCARGVGRYRVADYWGQGTLVTVSS VL: EIVMTQSPATLSLSPGERATLSCRASQSVSSYLAWYQQKPGQAPRLLIYDSSNRATGIPARFSGSGSGTDFTLTISSLEPEDFAVYYCQQETNMPPITFGGGTKVEIK	9210
anti-Sortilin antibody S-73 (antibody, V domains shown, Tested as full IgG made in yeast) VH: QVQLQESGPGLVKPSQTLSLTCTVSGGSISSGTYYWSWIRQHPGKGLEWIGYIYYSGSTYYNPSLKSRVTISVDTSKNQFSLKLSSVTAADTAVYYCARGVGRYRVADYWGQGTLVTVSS VL: EIVLTQSPATLSLSPGERATLSCRASQSVSSYLAWYQQKPGQAPRLLIYDASNRATGIPARFSGSGSGTDFTLTISSLEPEDFAVYYCQQASVYPPITFGGGTKVEIK	8070
anti-Sortilin antibody S-76 (antibody, V domains shown, Tested as full IgG made in yeast) VH: QVQLQESGPGLVKPSQTLSLTCTVSGGSISSGGYYWSWIRQHPGKGLEWIGSIYYSGSTYYNPSLKSRVTISVDTSKNQFSLKLSSVTAADTAVYYCARGVGIQQQLVLGFDPWGQGTLVTVSS VL: DIQMTQSPSSLSASVGDRVTITCRASQSISSFLNWYQQKPGKAPKLLISAASSLQSGVPSRFSGSGSGTDFTLTISSLQPEDFATYYCQQSYREPITFGGGTKVEIK	9680

Data point: anti-Sortilin antibody S-83 (antibody, V domains shown, Tested as full IgG made in yeast) VH: QLQLQESGPGLVKPSETLSLTCTVSGGSISSSSYYWGWIRQPPGKGLEWIGSIYYSGSTYYNPSLKSRVTISVDTSKNQFSLKLSSVTAADTAVYYCARGSPTWLRDYYMDVWGKGTTVTVSS VL: EIVLTQSPATLSVSPGERATLSCRASQSVSSNLAWYQQKPGQAPRLLIYGASTRATGIPARFSGSGSGTEFTLTISSLQSEDFAVYYCQQYNAFPPTFGGGTKVEIK ; MFI binding = 9300
